Values from patent US20130345199A1

TARGET ENTITY: CXCR7 (Homo sapiens)
Sequence (P25106 whole entry): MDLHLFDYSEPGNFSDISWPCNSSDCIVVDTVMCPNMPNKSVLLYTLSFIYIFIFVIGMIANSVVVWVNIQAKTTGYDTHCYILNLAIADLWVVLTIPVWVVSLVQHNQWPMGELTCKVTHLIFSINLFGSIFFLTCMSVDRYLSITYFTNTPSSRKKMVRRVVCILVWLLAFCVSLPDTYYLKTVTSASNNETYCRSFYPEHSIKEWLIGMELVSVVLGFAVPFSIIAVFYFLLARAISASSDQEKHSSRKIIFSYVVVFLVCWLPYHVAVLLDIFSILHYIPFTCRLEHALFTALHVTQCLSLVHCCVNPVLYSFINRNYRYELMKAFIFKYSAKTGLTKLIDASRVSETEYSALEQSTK
PROTOCOL TEXT: PathHunter CHO-K1 CXCR7 b-arrestin assay (agonistic activity)
CONDITION NOTES: PathHunter CHO-K1 CXCR7 b-arrestin cell line, 90 minutes at 37° C.
ASSAY READOUT: EC50 (nM)
The reply should be a number in nM, with the unit left off.

• COCCN(C)C(=O)C1CCN(Cc2cccc(NC(=O)c3cncc(C)c3)c2)CC1 [Example 2.058] = 224
• CC(C)(C)CCNC(=O)C1CCN(Cc2cccc(NC(=O)c3cccc(C(F)(F)F)n3)c2)CC1 [Example 2.082] = 121
• O=C(Nc1cccc(CN2CCC(C(=O)NCC3CCCCC3)CC2)c1)c1ccc(Cl)cc1 [Example 2.015] = 46

Please look at the following molecule next.
// EC50 value for O=C(Nc1cccc(CN2CCC(C(=O)NC3CCC3)CC2)c1)c1ccc(Cl)cc1 [Example 2.007] : 1
